Sourced from paper PMC6736568

- Tested on: HCT-8 host cells (Hs18S)
- Particulars: primary screening at 10 uM, treated vs control
Could you mark each record true (1) if its Hs18S ΔCT falls strictly under 0.02, and false (0) if it equals or exceeds it?

Below are worked cases with known answers.
LYSINE (L) HYDROCHLORIDE: true (1)
MEPARTRICIN: true (1)

Input BICUCULLINE(-) METHIODIDE ; condition: Hs18S ΔCT strictly below 0.02. Does it hold?
true (1)

Input AVOCATIN B ; condition: Hs18S ΔCT strictly below 0.02. Does it hold?
false (0)

Input ABAMECTIN (avermectin B1a shown) ; condition: Hs18S ΔCT strictly below 0.02. Does it hold?
false (0)

====

- Test Name: in vitro
- Particulars: human
Overview of reported cytotoxicity at 41 h, 10 µM across a group of molecules:
Entry rule: numbers only, all in %.

Item: C[C@H](CCC(=O)O)[C@H]1CC[C@H]2[C@@H]3CC[C@@H]4C[C@H](O)CC[C@]4(C)[C@H]3CC[C@]12C [LITHOCHOLIC ACID] | cytotoxicity at 41 h, 10 µM: 36.1

Item: Oc1cc(O)c2c(c1)O[C@H](c1cc(O)c(O)c(O)c1)[C@H](O)C2 [EPIGALLOCATECHIN] | cytotoxicity at 41 h, 10 µM: 9.9

Item: CCOc1cccc(C(=O)c2ccc(O)c(O)c2O)c1 | cytotoxicity at 41 h, 10 µM: -31.4

Item: Cc1cc(OC(=O)c2c(C)cc(O)cc2O)cc(O)c1C(=O)O [LECANORIC ACID] | cytotoxicity at 41 h, 10 µM: -1.2

====

Overview of reported % Inhibition (3.3 uM) across a group of substances:
- Tested on: Cryptosporidium parvum
- Test Name: qRT-PCR assay of the growth of C. parvum in vitro in HCT-8 host cells (primary and secondary screening, EC50)
- Type: cell-based
- Particulars: secondary screening at 3.3 uM
Entry rule: numbers only, all in %.

AVERMECTIN A1a: -85
IVERMECTIN: 6
STROPH[…] LACTONE ACETATE: 19
ABAMECTIN (avermectin B1a shown): -19

Lab note: substance MONENSIN SODIUM (monensin A is shown) tested on Cryptosporidium parvum; recorded % Inhibition (3.3 uM) was 99

====

- Test system: Cryptosporidium parvum
- Test Name: qRT-PCR assay of the growth of C. parvum in vitro in HCT-8 host cells (primary and secondary screening, EC50)
- Assay type: cell-based
- Particulars: primary screening at 10 uM
Counter-ions that a name gives are not always drawn.
Consider the reported Inhibition (%) of an entry and match it to a band in bin A (below -20%), bin B (-20% to below 20%), bin C (20% or more)

CC[C@H]1OC(=O)C[C@@H](O)[C@H](C)[C@@H](O[C@@H]2O[C@H](C)[C@@H](O[C@H]3C[C@@](C)(O)[C@@H](O)[C@H](C)O3)[C@H](N(C)C)[C@H]2O)[C@@H](CC=O)C[C@@H](C)C(=O)/C=C/C(C)=C/[C@@H]1CO[C@@H]1O[C@H](C)[C@@H](O)[C@@H](OC)[C@H]1OC [TYLOSIN TARTRATE]: bin C

Category of CC(C)CCC[C@@H](C)[C@H]1CC[C@H]2C3=CC[C@H]4C[C@@H](O)CC[C@]4(C)[C@H]3CC[C@]12C [LATHOSTEROL] , please.
bin A

Category of CC(=O)OCC1=C(C(=O)O)N2C(=O)[C@@H](N)[C@H]2SC1 [7-AMINOCEPHALOSPORANIC ACID] , please.
bin B

Category of C=C(C)CCCC(C)CCOC(C)=O (stereo not shown) [RHODINYL ACETATE] , please.
bin B

Category of CC(=O)[C@H]1CC[C@H]2[C@@H]3CCC4C[C@H](O)CC[C@]4(C)[C@H]3C[C@H](O)[C@]12C (stereo partly drawn) [DIHYDROXY (3alpha,12alpha)PREGNAN-20-ONE] , please.
bin A

Category of CC(=O)OCC(OC(C)=O)C(OC(C)=O)C(OC(C)=O)C(OC(C)=O)C(COC(C)=O)OC(C)=O (stereo not shown) [PERSEITOL HEPTAACETATE] , please.
bin B

Category of O.O=C(O)[C@@H]1[C@H]2C[C@H]3c4[nH]c5ccccc5c4CCN3C[C@@H]2CC[C@@H]1O [YOHIMBIC ACID HYDRATE] , please.
bin A

Category of CN1CCC[C@H]1c1cccnc1.O=C(O)C(O)C(O)C(=O)O.O=C(O)C(O)C(O)C(=O)O [NICOTINE BITARTRATE] , please.
bin C

Category of O.OC[C@H]1O[C@@H](O[C@H]2[C@H](O)[C@@H](O)[C@@H](O)O[C@@H]2CO)[C@H](O)[C@@H](O)[C@H]1O [LACTOSE MONOHYDRATE] , please.
bin C

Category of CC(=O)O[C@H]1CC[C@@]2(C)C(=CC[C@H]3[C@@H]4CC[C@H]([C@H](C)CCCC(C)C)[C@@]4(C)CC[C@@H]32)C1 [CHOLESTERYL ACETATE] , please.
bin A

Category of CC(=O)O[C@H]1CC[C@@]2(C)C(=CC=C3[C@@H]4CC[C@H]([C@H](C)/C=C/[C@H](C)C(C)C)[C@@]4(C)CC[C@@H]32)C1 [ERGOSTEROL ACETATE] , please.
bin B

Category of C[N+](C)(C)CCO.[Cl-] [CHOLINE CHLORIDE] , please.
bin C

Category of CC1(C)CCC[C@]2(C)[C@H]3CC(=O)O[C@]3(C)CC[C@@H]12 [SCLAREOLIDE] , please.
bin C
